# experimental protocol: 14-day oral gavage toxicokinetic study in rats
# Type: in vivo
# test conditions: both sexes, rat, plasma, po, 30 mg/kg, oral 30 mg/kg, Study Day 14, Overall
metric: Tmax (h)
Report as a plain number; the unit h is understood.

Exercise: Requested read-out: Tmax. Entry: CN1CCN(c2ccc(Nc3ncc4cc5n(c4n3)C3(CCCCC3)CNC5=O)nc2)CC1 [Compound 1]
Solution: 4

----------
# experimental protocol: 14-day oral gavage toxicokinetic study in rats
# Type: in vivo
# test conditions: female, rat, plasma, po, 2 mg/kg, Mean Compound 1 Plasma Concentration, rats, oral 2 mg/kg, Day 1, 24 h, Female
metric: concentration at 24 h (ng/mL)
Report as a plain number; the unit ng/mL is understood.

Exercise: Requested read-out: concentration at 24 h. Entry: CN1CCN(c2ccc(Nc3ncc4cc5n(c4n3)C3(CCCCC3)CNC5=O)nc2)CC1 [Compound 1]
Solution: 13

----------
# experimental protocol: Topotecan PK following Compound 1 infusion
# Assay type: in vivo, human
# test conditions: human, plasma, intravenous, Topotecan 0.75 mg/m^2 (Cohort 3) with Compound 1 200 mg/m^2, Day 1, Mean; read-out: t½ (converted)
metric: half-life
Remember to quote the unit after the number.

Exercise: Requested read-out: half-life. Entry: CC[C@@]1(O)C(=O)OCc2c1cc1n(c2=O)Cc2cc3c(CN(C)C)c(O)ccc3nc2-1.Cl [topotecan]
Solution: 4.33 h

----------
# experimental protocol: Single escalating dose IV infusion pharmacokinetics in healthy volunteers (noncompartmental)
# Type: in vivo, human
# test conditions: both sexes, human, plasma, iv, 96 mg/m^2, Cohort 5, 96 mg/m^2, 30-minute IV infusion; noncompartmental; subjects 1-6, Mean, Min, Median, Max, Geometric Mean
metric: AUC(0-t) (ng·h/mL)
Report as a plain number; the unit ng·h/mL is understood.

Exercise: Requested read-out: AUC(0-t). Entry: CN1CCN(c2ccc(Nc3ncc4cc5n(c4n3)C3(CCCCC3)CNC5=O)nc2)CC1
Solution: 1530

----------
# experimental protocol: Topotecan PK following Compound 1 infusion
# Format: in vivo, human
# test conditions: human, plasma, intravenous, Topotecan 0.75 mg/m^2 (Cohort 3) with Compound 1 200 mg/m^2, Day 4, Mean; read-out: Cmax
metric: Cmax

Exercise: Requested read-out: Cmax. Entry: CC[C@@]1(O)C(=O)OCc2c1cc1n(c2=O)Cc2cc3c(CN(C)C)c(O)ccc3nc2-1.Cl
Solution: 24.5 ng/mL

----------
# experimental protocol: 14-day oral gavage toxicokinetic study in rats
# Type: in vivo
# test conditions: both sexes, rat, plasma, po, 30 mg/kg, Mean Compound 1 Plasma Concentration, rats, oral 30 mg/kg, Day 1, 0.5 h, Overall
metric: concentration at 0.5 h

Exercise: Requested read-out: concentration at 0.5 h. Entry: CN1CCN(c2ccc(Nc3ncc4cc5n(c4n3)C3(CCCCC3)CNC5=O)nc2)CC1 [Compound 1]
Solution: 1790 ng/mL

----------
# experimental protocol: Compound 1 PK dosed Days 1-5 with topotecan
# Type: in vivo, human
# test conditions: human, plasma, intravenous, 200 mg/m^2 with Topotecan […]^2 (Cohort 1), Day 1, Mean; read-out: AUCinf
# Method: Analysis of plasma concentration versus time data for calculation of standard pharmacokinetic (PK) parameters following intravenous infusion administration was conducted using Phoenix WinNonlin version 6.3 using a nominal infusion duration and scheduled blood sampling times.
metric: AUC(0-inf) (ng·h/mL)
Report as a plain number; the unit ng·h/mL is understood.

Exercise: Requested read-out: AUC(0-inf). Entry: CN1CCN(c2ccc(Nc3ncc4cc5n(c4n3)C3(CCCCC3)CNC5=O)nc2)CC1
Solution: 2140

----------
# experimental protocol: Topotecan PK following Compound 1 infusion
# Type: in vivo, human
# test conditions: human, plasma, intravenous, Topotecan 1.25 mg/m^2 (Cohort 2) with Compound 1 200 mg/m^2, Day 1, Median; read-out: Cmax
metric: Cmax

Exercise: Requested read-out: Cmax. Entry: CC[C@@]1(O)C(=O)OCc2c1cc1n(c2=O)Cc2cc3c(CN(C)C)c(O)ccc3nc2-1.Cl
Solution: 57.7 ng/mL

----------
# experimental protocol: Single escalating dose IV infusion pharmacokinetics in healthy volunteers (noncompartmental)
# Type: in vivo, human
# test conditions: both sexes, human, plasma, iv, 12 mg/m^2, Compound 1 Concentration, Cohort 2, 12 mg/m^2 IV; Time 6.5 h; r7-9=Subjects 1-3,r11=Mean,r13=Min,r14=Median,r15=Max,r17=Geometric Mean
metric: concentration at 6.5 h (ng/mL)
Report as a plain number; the unit ng/mL is understood.

Exercise: Requested read-out: concentration at 6.5 h. Entry: CN1CCN(c2ccc(Nc3ncc4cc5n(c4n3)C3(CCCCC3)CNC5=O)nc2)CC1
Solution: 3.99

----------
# experimental protocol: 14-day oral gavage toxicokinetic study in rats
# Assay type: in vivo
# test conditions: female, rat, plasma, po, 15 mg/kg, Individual Compound 1 Plasma Concentration, rats, daily oral 15 mg/kg, Day 1, Female, 8 h
metric: concentration at 8 h (ng/mL)
Report as a plain number; the unit ng/mL is understood.

Exercise: Requested read-out: concentration at 8 h. Entry: CN1CCN(c2ccc(Nc3ncc4cc5n(c4n3)C3(CCCCC3)CNC5=O)nc2)CC1 [Compound 1]
Solution: 1250

----------
# experimental protocol: 14-day oral gavage toxicokinetic study in rats
# Assay type: in vivo
# test conditions: female, rat, plasma, po, 2 mg/kg, Mean Compound 1 Plasma Concentration, rats, oral 2 mg/kg, Day 14, 0.5 h, Female
metric: concentration at 0.5 h (ng/mL)
Report as a plain number; the unit ng/mL is understood.

Exercise: Requested read-out: concentration at 0.5 h. Entry: CN1CCN(c2ccc(Nc3ncc4cc5n(c4n3)C3(CCCCC3)CNC5=O)nc2)CC1
Solution: 150

----------
# experimental protocol: 14-day oral gavage toxicokinetic study in rats
# Assay type: in vivo
# test conditions: female, rat, plasma, po, 2 mg/kg, oral 2 mg/kg, Study Day 1, Female; read-out: t½ (converted)
# Protocol: Plasma was obtained from blood samples collected from rats in a composite sampling scheme, with 3 samples collected per sex, per dose, at each target collection time, as illustrated in Table 21 to Table 25. […] The following parameters were determined: […] A value of 0 ng/mL was assigned to all values below the lower limit of quantitation (BLQ, <10.0 ng/mL). […] CL: Clearance (L/h/kg), calculated as the dose divided by AUC(0-t). […] Cmax/Dose: Normalized Cmax, calculated as Cmax divided by total dose. […]
metric: half-life (h)
Report as a plain number; the unit h is understood.

Exercise: Requested read-out: half-life. Entry: CN1CCN(c2ccc(Nc3ncc4cc5n(c4n3)C3(CCCCC3)CNC5=O)nc2)CC1 [Compound 1]
Solution: 5.25

----------
# experimental protocol: 14-day oral gavage toxicokinetic study in rats
# Assay type: in vivo
# test conditions: female, rat, plasma, po, 2 mg/kg, Compound 1 Plasma Concentration, rats, Female, Day 14, 1 h; daily oral 2 mg/kg (Group 7); individual animals
metric: concentration at 1 h (ng/mL)
Report as a plain number; the unit ng/mL is understood.

Exercise: Requested read-out: concentration at 1 h. Entry: CN1CCN(c2ccc(Nc3ncc4cc5n(c4n3)C3(CCCCC3)CNC5=O)nc2)CC1 [Compound 1]
Solution: 108

----------
# experimental protocol: 14-day oral gavage toxicokinetic study in rats
# Format: in vivo
# test conditions: male, rat, plasma, po, 15 mg/kg, Individual Compound 1 Plasma Concentration, rats, daily oral 15 mg/kg, Day 1, Male, 8 h
# Procedure: Plasma was obtained from blood samples collected from rats in a composite sampling scheme, with 3 samples collected per sex, per dose, at each target collection time, as illustrated in Table 21 to Table 25. […] The following parameters were determined: […] A value of 0 ng/mL was assigned to all values below the lower limit of quantitation (BLQ, <10.0 ng/mL). […] CL: Clearance (L/h/kg), calculated as the dose divided by AUC(0-t). […] Cmax/Dose: Normalized Cmax, calculated as Cmax divided by total dose. […]
metric: concentration at 8 h

Exercise: Requested read-out: concentration at 8 h. Entry: CN1CCN(c2ccc(Nc3ncc4cc5n(c4n3)C3(CCCCC3)CNC5=O)nc2)CC1 [Compound 1]
Solution: 696 ng/mL

----------
# experimental protocol: Compound 1 PK dosed Days 1-5 with topotecan
# Type: in vivo, human
# test conditions: human, plasma, intravenous, 200 mg/m^2 with Topotecan 0.75 mg/m^2 (Cohort 3), Day 1, Mean; read-out: AUCinf
metric: AUC(0-inf) (ng·h/mL)
Report as a plain number; the unit ng·h/mL is understood.

Exercise: Requested read-out: AUC(0-inf). Entry: CN1CCN(c2ccc(Nc3ncc4cc5n(c4n3)C3(CCCCC3)CNC5=O)nc2)CC1
Solution: 2200

----------
# experimental protocol: 14-day oral gavage toxicokinetic study in rats
# Format: in vivo
# test conditions: female, rat, plasma, po, 2 mg/kg, Mean Compound 1 Plasma Concentration, rats, oral 2 mg/kg, Day 14, 8 h, Female
metric: concentration at 8 h (ng/mL)
Report as a plain number; the unit ng/mL is understood.

Exercise: Requested read-out: concentration at 8 h. Entry: CN1CCN(c2ccc(Nc3ncc4cc5n(c4n3)C3(CCCCC3)CNC5=O)nc2)CC1 [Compound 1]
Solution: 117

Reference source: patent US20160220569A1
